Please respond with reported T/C for every item in the list.
test system: Nude mice, LX-1 lung xenograft intrarenal, tumor weight T/C; experiment: NCI In Vivo Anticancer Drug Screen. Data for tumor model Human Lung LX-1 Xenograft (intrarenal inoculation) in NU/NU BALB/C (nude) mice; conditions: endpoint: mean tumor weight change; dose: 1200.0 mg/kg/injection; schedule: Q04DX003 (sc); vehicle: saline; higher = larger tumour
Inconclusive results are not listed.

Query string: Param item = O=C(O)CP(=O)(O)O ; retrieve measured T/C.
Result string: 106 % of control

Query string: Then COC(=O)CC(N)C(=O)O (stereo not drawn) ?
Result string: 55 % of control

Query string: Quick one: N#CC(OC1OC(COC2OC(CO)C(O)C(O)C2O)C(O)C(O)C1O)c1ccccc1 (stereo not drawn)
Result string: 193 % of control
